Just for reference, patent US20240182536A1 is where these values come from.

# key: entry, value: Activity, No BP, DF-2500000
Molecular target: T1, IL-18 receptors on HEK-Blue IL-18 reporter cells (UniProt Q13478 19-541; O95256 20-599, limits assumed)
T1 sequence (looked up) 1: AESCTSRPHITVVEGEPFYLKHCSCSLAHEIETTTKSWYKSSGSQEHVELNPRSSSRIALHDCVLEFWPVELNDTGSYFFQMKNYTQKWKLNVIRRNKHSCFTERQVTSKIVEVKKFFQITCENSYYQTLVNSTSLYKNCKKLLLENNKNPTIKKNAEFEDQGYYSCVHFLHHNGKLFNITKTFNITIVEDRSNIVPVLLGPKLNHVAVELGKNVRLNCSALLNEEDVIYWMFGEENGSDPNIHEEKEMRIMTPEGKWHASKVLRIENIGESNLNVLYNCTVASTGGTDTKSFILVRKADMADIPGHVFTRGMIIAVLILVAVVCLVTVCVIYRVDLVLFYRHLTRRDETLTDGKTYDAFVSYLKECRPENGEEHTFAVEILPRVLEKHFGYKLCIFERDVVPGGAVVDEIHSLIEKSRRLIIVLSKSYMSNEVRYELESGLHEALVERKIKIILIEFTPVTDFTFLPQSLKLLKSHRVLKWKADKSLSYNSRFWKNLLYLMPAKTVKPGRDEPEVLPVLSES
T1 sequence (looked up) 2: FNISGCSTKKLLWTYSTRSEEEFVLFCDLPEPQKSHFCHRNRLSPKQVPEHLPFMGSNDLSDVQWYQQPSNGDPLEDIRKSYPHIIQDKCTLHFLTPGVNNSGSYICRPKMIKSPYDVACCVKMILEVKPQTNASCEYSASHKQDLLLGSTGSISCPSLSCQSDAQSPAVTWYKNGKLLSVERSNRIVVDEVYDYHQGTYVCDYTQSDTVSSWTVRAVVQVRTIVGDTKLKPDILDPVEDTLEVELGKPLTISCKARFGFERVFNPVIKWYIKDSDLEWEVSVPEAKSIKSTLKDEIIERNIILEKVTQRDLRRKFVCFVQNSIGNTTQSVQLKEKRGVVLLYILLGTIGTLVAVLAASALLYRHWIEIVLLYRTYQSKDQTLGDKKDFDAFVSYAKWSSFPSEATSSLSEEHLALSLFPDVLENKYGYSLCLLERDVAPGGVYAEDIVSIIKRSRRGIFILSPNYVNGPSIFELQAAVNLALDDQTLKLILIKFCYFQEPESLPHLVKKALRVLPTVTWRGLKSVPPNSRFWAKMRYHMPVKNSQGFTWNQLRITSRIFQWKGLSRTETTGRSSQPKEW
Experiment: cell-based or functional assay
Write no unit; give the number alone.

Binder	Value measured
IL-18 variant G3L, E6Q, T63S, N91L, R104P (ligand) YFLKLQSKLSVIRNLNDQVLFIDQGNRPLFEDMTDSDMRDNAPRTIFIISMYKDSQPRGMAVSISVKSEKISTLSSENKIISFKEMNPPDLIKDTKSDIIFFQPSVPGHDNKMQFESSSYEGYFLASEKERDLFKLILKKEDELGDRSIMFTVQNED	0.1

Challenge: Please report Activity, No BP, DF-2500000 for the following binder: IL-18 variant G3I, E6D, D54A, S55F, N91Y, R104H (ligand) YFIKLDSKLSVIRNLNDQVLFIDQGNRPLFEDMTDSDMRDNAPRTIFIISMYKAFQPRGMAVTISVKSEKISTLSSENKIISFKEMNPPDYIKDTKSDIIFFQHSVPGHDNKMQFESSSYEGYFLASEKERDLFKLILKKEDELGDRSIMFTVQNED
Response given: 1.34

Challenge: Please report Activity, No BP, DF-2500000 for the following binder: IL-18 variant G3E, E6H, R27S, D54A, S55T, T63S, N91F, R104S (ligand) YFEKLHSKLSVIRNLNDQVLFIDQGNSPLFEDMTDSDMRDNAPRTIFIISMYKATQPRGMAVSISVKSEKISTLSSENKIISFKEMNPPDFIKDTKSDIIFFQSSVPGHDNKMQFESSSYEGYFLASEKERDLFKLILKKEDELGDRSIMFTVQNED
Response given: 1.14
